B1: SASS6 (parent)
chain: QKELQDVGQSLRIKEQEVCKLQEQ

Variants of: B1
ASSAY_OVERVIEW: protein stability index of a GFP-peptide fusion (GPS, HEK-293T) (PSI 1-6); higher = more stable;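 note: lentivirally expressed fusions sorted by FACS into six bins by GFP to DsRed ratio, PSI derived from sequencing read proportions per bin multiplied by bin number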
ASSAY_CONTEXT: c terminus: a fixed tail appended
# if value of protein stability index reaches 5, tag satisfied; if it stays below, tag not satisfied

1. QKECQDVGQSLRIKEQEVCKLQEQ = not satisfied
2. QKELQDVGQSLRIKHQEVCKLQEQ = not satisfied
3. QKQLQDVGQSLRIKEQEVCKLQEQ = not satisfied
4. QKELQDSGQSLRIKEQEVCKLQEQ = satisfied
5. QKELQDVGQSLRIKEQENCKLQEQ = satisfied
6. QKELRDVGQSLRIKEQEVCKLQEQ = not satisfied
7. QKELQDVGQSLRIKEQEVCKLQEI = not satisfied
8. QKELQDVGQSLRIKTQEVCKLQEQ = not satisfied
9. QKELQDVGQSLRIKEQEVCKLKEQ = satisfied
10. QKELQDVGQSLRIKEQAVCKLQEQ = not satisfied
11. QKELQDVGQSLRIKEQEVCKLQRQ = not satisfied
12. QKELQDVGQSLRIKEQEVCKLPEQ = satisfied
13. QKELQDVGQSLRIKEQEVCKLFEQ = not satisfied
14. QKELQDVWQSLRIKEQEVCKLQEQ = not satisfied
15. QKELQDVGQSLRIKEQEVCKPQEQ = satisfied
16. QKELQDVGQSLRIKRQEVCKLQEQ = not satisfied
17. QKELQDVGQSERIKEQEVCKLQEQ = satisfied
18. QKELQDVGQSLRIKEQEVCKDQEQ = satisfied
19. QKELQDVGQSLRIKEQEFCKLQEQ = not satisfied
20. QKELQDVGQMLRIKEQEVCKLQEQ = satisfied
21. QKELQDVGQSLRIKEQEVCKLEEQ = satisfied
